Each recorded value in this set is attributed to patent US9549932B2.

Task for the reader: assign each of the following molecules its reported IC50.
Target: full-length human ATR protein (Homo sapiens (Human))
Sequence (Q13535 other isoform, or with tags, fused parts or gaps): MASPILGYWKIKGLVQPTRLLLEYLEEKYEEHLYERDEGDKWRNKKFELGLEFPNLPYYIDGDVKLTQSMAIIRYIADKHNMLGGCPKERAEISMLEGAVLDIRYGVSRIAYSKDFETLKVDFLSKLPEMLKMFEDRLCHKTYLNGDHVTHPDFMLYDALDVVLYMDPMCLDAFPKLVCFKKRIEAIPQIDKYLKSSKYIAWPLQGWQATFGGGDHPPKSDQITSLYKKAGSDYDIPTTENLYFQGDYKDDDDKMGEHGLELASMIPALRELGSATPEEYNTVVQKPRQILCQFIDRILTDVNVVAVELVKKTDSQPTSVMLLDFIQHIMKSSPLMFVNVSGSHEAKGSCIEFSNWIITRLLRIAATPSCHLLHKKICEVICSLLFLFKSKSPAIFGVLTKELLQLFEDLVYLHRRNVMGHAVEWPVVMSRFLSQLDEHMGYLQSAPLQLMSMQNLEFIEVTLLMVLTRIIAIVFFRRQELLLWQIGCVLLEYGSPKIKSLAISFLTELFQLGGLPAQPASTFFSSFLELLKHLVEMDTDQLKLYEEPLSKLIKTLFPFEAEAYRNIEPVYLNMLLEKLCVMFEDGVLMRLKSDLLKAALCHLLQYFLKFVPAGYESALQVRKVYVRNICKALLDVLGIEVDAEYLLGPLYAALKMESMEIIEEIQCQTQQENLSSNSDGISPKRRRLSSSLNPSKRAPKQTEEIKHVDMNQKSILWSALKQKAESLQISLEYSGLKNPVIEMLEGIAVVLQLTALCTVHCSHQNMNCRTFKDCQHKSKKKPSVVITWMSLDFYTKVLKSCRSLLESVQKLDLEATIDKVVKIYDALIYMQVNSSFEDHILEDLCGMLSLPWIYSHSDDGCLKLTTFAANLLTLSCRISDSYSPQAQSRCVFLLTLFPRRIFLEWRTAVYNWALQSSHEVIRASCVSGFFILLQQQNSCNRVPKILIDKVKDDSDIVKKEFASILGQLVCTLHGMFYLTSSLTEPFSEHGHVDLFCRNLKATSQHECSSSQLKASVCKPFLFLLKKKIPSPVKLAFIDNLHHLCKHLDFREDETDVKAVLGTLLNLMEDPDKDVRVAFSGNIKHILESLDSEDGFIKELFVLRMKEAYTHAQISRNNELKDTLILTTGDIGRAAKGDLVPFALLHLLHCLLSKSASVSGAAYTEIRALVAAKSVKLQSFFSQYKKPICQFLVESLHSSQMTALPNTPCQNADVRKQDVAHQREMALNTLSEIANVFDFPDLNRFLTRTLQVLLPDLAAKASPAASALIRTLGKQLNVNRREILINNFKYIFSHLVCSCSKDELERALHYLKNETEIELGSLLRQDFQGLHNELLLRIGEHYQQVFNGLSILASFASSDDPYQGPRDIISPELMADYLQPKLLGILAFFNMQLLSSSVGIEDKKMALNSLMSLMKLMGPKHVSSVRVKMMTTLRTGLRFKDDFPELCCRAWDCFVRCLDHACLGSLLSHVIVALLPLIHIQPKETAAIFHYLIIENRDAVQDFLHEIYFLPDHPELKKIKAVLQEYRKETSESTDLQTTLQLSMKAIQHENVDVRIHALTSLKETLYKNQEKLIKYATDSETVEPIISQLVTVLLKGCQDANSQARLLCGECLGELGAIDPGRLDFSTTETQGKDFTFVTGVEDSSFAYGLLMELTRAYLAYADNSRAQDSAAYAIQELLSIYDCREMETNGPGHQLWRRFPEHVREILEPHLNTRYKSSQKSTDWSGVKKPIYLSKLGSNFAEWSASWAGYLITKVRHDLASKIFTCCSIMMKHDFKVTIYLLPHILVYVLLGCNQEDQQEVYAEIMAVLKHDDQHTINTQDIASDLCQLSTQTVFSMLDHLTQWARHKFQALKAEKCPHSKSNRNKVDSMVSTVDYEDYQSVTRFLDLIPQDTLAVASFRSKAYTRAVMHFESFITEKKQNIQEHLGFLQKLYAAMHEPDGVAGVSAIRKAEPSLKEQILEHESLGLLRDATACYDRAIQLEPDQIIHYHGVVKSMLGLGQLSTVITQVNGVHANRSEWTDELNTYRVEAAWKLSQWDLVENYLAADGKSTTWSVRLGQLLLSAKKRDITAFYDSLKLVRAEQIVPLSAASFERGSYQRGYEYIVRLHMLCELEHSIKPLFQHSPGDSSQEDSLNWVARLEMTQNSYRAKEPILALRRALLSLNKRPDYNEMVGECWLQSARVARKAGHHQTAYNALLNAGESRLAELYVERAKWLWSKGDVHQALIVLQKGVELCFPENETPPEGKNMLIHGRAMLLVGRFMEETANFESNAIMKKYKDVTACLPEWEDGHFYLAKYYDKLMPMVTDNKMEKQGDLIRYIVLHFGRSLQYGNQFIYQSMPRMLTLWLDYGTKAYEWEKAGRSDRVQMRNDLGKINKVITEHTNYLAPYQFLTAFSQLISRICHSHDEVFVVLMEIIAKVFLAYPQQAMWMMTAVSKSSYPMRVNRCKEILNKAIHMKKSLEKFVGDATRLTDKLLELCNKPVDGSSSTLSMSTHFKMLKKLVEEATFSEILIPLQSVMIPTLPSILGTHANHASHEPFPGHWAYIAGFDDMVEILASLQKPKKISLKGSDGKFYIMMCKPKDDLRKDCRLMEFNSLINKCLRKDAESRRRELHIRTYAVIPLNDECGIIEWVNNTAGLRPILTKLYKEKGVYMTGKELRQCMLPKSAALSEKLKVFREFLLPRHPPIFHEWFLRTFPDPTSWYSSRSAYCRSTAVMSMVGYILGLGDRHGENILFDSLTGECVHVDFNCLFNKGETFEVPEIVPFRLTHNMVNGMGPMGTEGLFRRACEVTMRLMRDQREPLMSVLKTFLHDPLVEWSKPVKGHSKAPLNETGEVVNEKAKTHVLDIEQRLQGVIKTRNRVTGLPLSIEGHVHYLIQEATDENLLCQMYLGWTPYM
Sequence (Q8WXE1 other isoform, or with tags, fused parts or gaps partner): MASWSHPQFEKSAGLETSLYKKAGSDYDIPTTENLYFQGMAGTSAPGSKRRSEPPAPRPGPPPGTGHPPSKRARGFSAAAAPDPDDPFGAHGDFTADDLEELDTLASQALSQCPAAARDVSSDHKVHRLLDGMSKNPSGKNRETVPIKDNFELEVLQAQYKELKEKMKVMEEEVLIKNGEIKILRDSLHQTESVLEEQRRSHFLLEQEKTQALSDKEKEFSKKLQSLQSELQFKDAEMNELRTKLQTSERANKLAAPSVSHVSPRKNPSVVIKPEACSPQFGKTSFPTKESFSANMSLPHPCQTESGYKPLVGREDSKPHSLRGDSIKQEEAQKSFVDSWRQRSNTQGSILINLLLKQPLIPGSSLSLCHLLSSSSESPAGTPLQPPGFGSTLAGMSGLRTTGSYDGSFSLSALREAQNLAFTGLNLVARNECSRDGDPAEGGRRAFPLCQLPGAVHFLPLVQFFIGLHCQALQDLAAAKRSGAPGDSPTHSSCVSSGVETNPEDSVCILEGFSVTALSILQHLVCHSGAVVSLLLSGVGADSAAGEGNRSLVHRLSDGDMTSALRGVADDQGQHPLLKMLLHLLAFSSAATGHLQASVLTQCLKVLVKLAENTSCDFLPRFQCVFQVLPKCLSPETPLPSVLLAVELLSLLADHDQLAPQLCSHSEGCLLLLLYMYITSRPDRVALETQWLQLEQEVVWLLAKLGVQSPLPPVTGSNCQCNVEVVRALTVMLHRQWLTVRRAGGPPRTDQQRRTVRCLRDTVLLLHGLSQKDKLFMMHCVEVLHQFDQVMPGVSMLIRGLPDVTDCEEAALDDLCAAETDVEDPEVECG
Experiment: Binding assay ATR (TR-FRET tracer displacement)
Conditions: tracer A, TR-FRET; read-out: ATR binding (tracer A) IC50
Supply the numeric figure in µM, leaving out any unit text.

Prompt: Provide only the value of recorded IC50 for COc1cncc(-c2cc(N3CCOCC3)nc3c(-c4ccn[nH]4)nccc23)c1 [Example 353]
Completion: 0.242

Prompt: Report IC50 for C[C@@H]1COCCN1c1cc(-c2ccn(C3CCOCC3)n2)c2ccnc(-c3ccn[nH]3)c2n1 [Example 246]
Completion: 0.068

Prompt: Provide one value: measured IC50 of C[C@@H]1COCCN1c1cc(-c2ncco2)c2ccnc(-c3ccn[nH]3)c2n1 [Example 270]
Completion: 0.0337

Prompt: Identify measured IC50 associated with C1=C(c2cc(N3CCOCC3)nc3c(-c4cc[nH]n4)nccc23)CCOC1 [Example 4]
Completion: 0.0617

Prompt: Please look at this molecule and report its IC50: CCC(O)(CC)c1cc(N2CCOC[C@H]2C)nc2c(-c3ccn[nH]3)nccc12 [Example 129]
Completion: 0.0353

Prompt: Consider the molecule CCn1cc(-c2cc(N3CCOC[C@H]3C)nc3c(-c4ccn[nH]4)nccc23)cn1 [Example 261] and give its recorded IC50.
Completion: 0.0292

Prompt: Provide only the value of recorded IC50 for COc1ccc(-c2cc(N3CCOC[C@H]3C)nc3c(-c4ccn[nH]4)nccc23)cn1 [Example 95]
Completion: 0.0113

Prompt: Please give measured IC50 of the following entry: c1ccc2c(-c3cc(N4CCOCC4)nc4c(-c5ccn[nH]5)nccc34)cncc2c1 [Example 363]
Completion: 0.191

Prompt: Using known records, supply IC50 for COC1(C)CN(c2cc(N3CCOCC3)nc3c(-c4ccn[nH]4)nccc23)C1 [Example 184]
Completion: 0.763

Prompt: State its IC50: Oc1ccc(-c2cc(N3CCOCC3)nc3c(-c4ccn[nH]4)nccc23)cn1 [Example 390]
Completion: 0.663

* * *

Biological target: full-length human ATR protein (Homo sapiens (Human))
Assay: Binding assay ATR (TR-FRET tracer displacement)
Conditions: tracer A, TR-FRET; read-out: ATR binding (tracer A) IC50
Structures can show the parent of a compound that is named as a salt.
Measurement name: log10(IC50) (log10 of the value in nM)
// stored as log10 of IC50 expressed in nM

Prompt: Answer with reported log10(IC50) of Cc1ccc(-c2cc(N3CCOC[C@H]3C)nc3c(-c4ccn[nH]4)nccc23)c(F)n1 [Example 93]
Completion: 1.04

Prompt: Assign log10(IC50) to the following record: c1cc2c(C3CC3)cc(N3CCOCC3)nc2c(-c2cc[nH]n2)n1 [Example 18]
Completion: 2.36

Prompt: Tell me measured log10(IC50) for Nc1ccc(-c2cc(N3CCOCC3)nc3c(-c4ccn[nH]4)nccc23)cn1 [Example 386] please.
Completion: 2.24

Prompt: Please give measured log10(IC50) of the following entry: COc1ncccc1-c1cc(N2CCOC[C@H]2C)nc2c(-c3ccn[nH]3)nccc12 [Example 220]
Completion: 1.51

Prompt: // Input: CS(=O)(=O)C1(c2cc(N3CCOCC3)nc3c(-c4ccn[nH]4)nccc23)CC1 [Example 39] . Output its log10(IC50) only.
Completion: 1.78

Prompt: Determine its reported log10(IC50): FC1CCCN(c2cc(N3CCOCC3)nc3c(-c4ccn[nH]4)nccc23)C1 (stereo not drawn) [Example 426]
Completion: 2.20

Prompt: Name the recorded log10(IC50) of the compound listed here: CS(=O)(=O)c1ccccc1-c1cc(N2CCOCC2)nc2c(-c3cc[nH]n3)nccc12 [Example 8, hydrochloride]
Completion: 2.07

Prompt: Please look at this compound and report its log10(IC50): Fc1ccccc1-c1cc(N2CCOCC2)nc2c(-c3ccn[nH]3)nccc12 [Example 327]
Completion: 1.25

Prompt: Answer with reported log10(IC50) of Cc1nn(C)c(C)c1-c1cc(N2CCOCC2)nc2c(-c3ccn[nH]3)nccc12 [Example 273]
Completion: 1.15

Prompt: Supply measured log10(IC50) of C[C@@H]1COCCN1c1cc(-c2cnn(C(F)F)c2)c2ccnc(-c3ccn[nH]3)c2n1 [Example 256] in your reply.
Completion: 1.75

Prompt: Please give measured log10(IC50) of the following entry: NC(=O)[C@H]1CCCN1c1cc(N2CCOCC2)nc2c(-c3ccn[nH]3)nccc12 (stereo in doubt) [Example 428]
Completion: 1.84

Prompt: Give the measured log10(IC50) for O=S1(=O)CCC12CN(c1cc(N3CCOCC3)nc3c(-c4ccn[nH]4)nccc13)C2 [Example 425]
Completion: 3.00

Prompt: Indicate the recorded log10(IC50) value for this compound: CNC(=O)c1ccc(-c2cc(N3CCOCC3)nc3c(-c4ccn[nH]4)nccc23)cn1 [Example 398]
Completion: 2.08

Prompt: Return reported log10(IC50). Input compound: COc1ncc(-c2cc(N3CCOC[C@H]3C)nc3c(-c4ccn[nH]4)nccc23)cc1C [Example 96]
Completion: 1.10

Prompt: Supply recorded log10(IC50) for CS(=O)(=O)c1ccc(-c2cc(N3CCOCC3)nc3c(-c4cc[nH]n4)nccc23)cc1 [Example 7] here.
Completion: 1.77

Prompt: Name the recorded log10(IC50) of the item C[C@@H]1COCCN1c1cc(-c2cccc(C(C)(C)O)c2)c2ccnc(-c3ccn[nH]3)c2n1 [Example 168] in your answer.
Completion: 2.72

Prompt: Please supply the value of reported log10(IC50) for the item C[C@@H]1COCCN1c1cc(-c2ccsc2Cl)c2ccnc(-c3ccn[nH]3)c2n1 [Example 236]
Completion: 1.45

Prompt: Output measured log10(IC50) for this item: CSCc1cc(N2CCOC[C@H]2C)nc2c(-c3ccn[nH]3)nccc12 [Example 186]
Completion: 1.83

Prompt: Dear colleague, please send me the reported log10(IC50) for O=C1OCCC1Oc1cc(N2CCOCC2)nc2c(-c3ccn[nH]3)nccc12 (stereo not drawn) [Example 47] when you can.
Completion: 3.14

Prompt: Consider the compound CCS(=O)(=O)N1CCN(c2cc(N3CCOCC3)nc3c(-c4ccn[nH]4)nccc23)CC1 [Example 433] and give its recorded log10(IC50).
Completion: 1.62

Prompt: Return value of log10(IC50) for input Cc1cc(-c2cc(N3CCOCC3)nc3c(-c4ccn[nH]4)nccc23)cc(C)c1O [Example 311] , no commentary.
Completion: 2.58

Prompt: Complete the entry with log10(IC50) for CCCN(C)c1cc(N2CCOCC2)nc2c(-c3ccn[nH]3)nccc12 [Example 412]
Completion: 2.21

Prompt: Report log10(IC50), nothing else, for this compound: C=C(C)c1cc(N2CCOCC2)nc2c(-c3cc[nH]n3)nccc12 [Example 10]
Completion: 2.10

Prompt: Using known records, supply log10(IC50) for C[S+]([O-])c1cc(N2CCOCC2)nc2c(-c3ccn[nH]3)nccc12 (stereo not drawn) [Example 202]
Completion: 1.89

Prompt: Write down log10(IC50) measured for item c1cc2c(C3CCOCC3)cc(N3CCOCC3)nc2c(-c2cc[nH]n2)n1 [Example 60]
Completion: 1.38

Prompt: Give log10(IC50) for COc1cccc(OC)c1-c1cc(N2CCOCC2)nc2c(-c3ccn[nH]3)nccc12 [Example 342]
Completion: 3.44

Prompt: Name the recorded log10(IC50) of the item CN(c1ccccc1)c1cc(N2CCOCC2)nc2c(-c3ccn[nH]3)nccc12 [Example 410] in your answer.
Completion: 2.18
